Data provenance: patent US20250361230A1

target entity: LATS1 Kinase-NanoLuc fusion in HEK-293 cells (Homo sapiens, UniProt O95835)
Construct: host or cells: HEK-293
Sequence (O95835 1-1130): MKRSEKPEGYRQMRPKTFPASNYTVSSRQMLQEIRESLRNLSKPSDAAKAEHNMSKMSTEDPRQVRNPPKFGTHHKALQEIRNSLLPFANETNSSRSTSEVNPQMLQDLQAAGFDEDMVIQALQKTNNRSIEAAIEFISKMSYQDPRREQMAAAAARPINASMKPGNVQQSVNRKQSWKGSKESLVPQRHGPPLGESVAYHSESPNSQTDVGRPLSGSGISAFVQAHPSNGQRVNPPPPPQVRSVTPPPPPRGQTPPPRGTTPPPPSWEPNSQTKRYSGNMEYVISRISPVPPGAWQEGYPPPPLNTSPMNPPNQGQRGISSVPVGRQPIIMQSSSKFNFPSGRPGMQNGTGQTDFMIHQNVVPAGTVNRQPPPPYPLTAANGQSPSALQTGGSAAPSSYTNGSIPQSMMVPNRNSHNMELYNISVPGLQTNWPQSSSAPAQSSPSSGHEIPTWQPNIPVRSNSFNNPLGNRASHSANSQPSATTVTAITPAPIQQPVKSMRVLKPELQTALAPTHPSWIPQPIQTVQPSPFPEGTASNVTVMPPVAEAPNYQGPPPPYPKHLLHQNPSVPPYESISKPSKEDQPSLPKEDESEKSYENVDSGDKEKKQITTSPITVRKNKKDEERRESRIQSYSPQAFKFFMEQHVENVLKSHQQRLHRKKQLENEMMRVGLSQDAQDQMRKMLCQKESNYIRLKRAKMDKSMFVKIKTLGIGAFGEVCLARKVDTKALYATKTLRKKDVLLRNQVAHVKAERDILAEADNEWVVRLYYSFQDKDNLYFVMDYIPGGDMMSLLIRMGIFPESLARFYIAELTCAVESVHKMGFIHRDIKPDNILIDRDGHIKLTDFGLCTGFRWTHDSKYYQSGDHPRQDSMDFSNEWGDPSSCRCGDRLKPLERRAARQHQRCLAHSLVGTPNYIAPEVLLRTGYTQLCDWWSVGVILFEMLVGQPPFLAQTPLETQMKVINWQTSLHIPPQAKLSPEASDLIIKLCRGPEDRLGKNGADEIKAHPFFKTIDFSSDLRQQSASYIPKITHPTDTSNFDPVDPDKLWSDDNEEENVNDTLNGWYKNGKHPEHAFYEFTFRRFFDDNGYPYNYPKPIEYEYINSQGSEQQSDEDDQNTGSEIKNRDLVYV
method notes: NanoBRET target engagement assay in transfected HEK-293 cells, LATS1
Format: cell-based
experimental parameters: Table 28, NanoBRET, HEK-293 cells; read-out: LATS1 (Cellular) IC50
Consider the following molecules and their measured IC50 readings.
reported property: IC50 (nM)

| molecule | target entity | reported property | relation sign | reading |
| --- | --- | --- | --- | --- |
| Cc1cc(-c2ccnc3[nH]cc(F)c23)ccc1[C@@]1(O)[C@H](C)CNC[C@@H]1C | LATS1 Kinase-NanoLuc fusion in HEK-293 cells (Homo sapiens, UniProt O95835) | IC50 | = | 44.6 |
| C[C@@H]1CN(C)C[C@H](C)[C@@]1(O)c1ccc(-c2ccnc3[nH]cc(F)c23)cc1 | LATS1 Kinase-NanoLuc fusion in HEK-293 cells (Homo sapiens, UniProt O95835) | IC50 | = | 19000 |
| Cc1cc(-c2ccnc3[nH]cc(F)c23)ccc1CN | LATS1 Kinase-NanoLuc fusion in HEK-293 cells (Homo sapiens, UniProt O95835) | IC50 | = | 6370 |
| C[C@@H]1CN(C)C[C@H](C)[C@@]1(O)c1cnc(-c2ccnc3[nH]cc(F)c23)cc1Cl | LATS1 Kinase-NanoLuc fusion in HEK-293 cells (Homo sapiens, UniProt O95835) | IC50 | = | 505 |
| Cc1cc(-c2ccnc3[nH]cc(F)c23)ccc1[C@@]1(O)[C@H](C)CN(C(=O)CN)C[C@@H]1C | LATS1 Kinase-NanoLuc fusion in HEK-293 cells (Homo sapiens, UniProt O95835) | IC50 | = | 21.5 |
| Cc1cc(-c2ccnc3[nH]ccc23)ccc1C1CCNCC1 | LATS1 Kinase-NanoLuc fusion in HEK-293 cells (Homo sapiens, UniProt O95835) | IC50 | = | 48300 |
| CC(C)(N)c1ccc(-c2ccnc3[nH]cc(F)c23)cc1 | LATS1 Kinase-NanoLuc fusion in HEK-293 cells (Homo sapiens, UniProt O95835) | IC50 | = | 1560 |
| c1cc(-c2ccc(C3CCCCN3)cc2)c2cc[nH]c2n1 (centres unmarked) | LATS1 Kinase-NanoLuc fusion in HEK-293 cells (Homo sapiens, UniProt O95835) | IC50 | > | 50000 |
| Cc1cc(-c2ccnc3[nH]cc(F)c23)cc(F)c1[C@@]1(O)[C@H](C)CN(C(=O)CN)C[C@@H]1C | LATS1 Kinase-NanoLuc fusion in HEK-293 cells (Homo sapiens, UniProt O95835) | IC50 | = | 4 |
| C[C@@H]1CN(C2CCC2)C[C@H](C)[C@@]1(O)c1c(F)cc(-c2ccnc3[nH]cc(F)c23)cc1F | LATS1 Kinase-NanoLuc fusion in HEK-293 cells (Homo sapiens, UniProt O95835) | IC50 | = | 462 |
| NCc1ccc(-c2ccnc3[nH]cc(-c4ccccc4)c23)cc1-c1ccccc1 | LATS1 Kinase-NanoLuc fusion in HEK-293 cells (Homo sapiens, UniProt O95835) | IC50 | = | 653 |
| C[C@@H]1CN(C2CCS(=O)(=O)CC2)C[C@H](C)C1(O)c1c(F)cc(-c2ccnc3[nH]cc(F)c23)cc1F (some centres unmarked) | LATS1 Kinase-NanoLuc fusion in HEK-293 cells (Homo sapiens, UniProt O95835) | IC50 | = | 1190 |
| Cc1cc(-c2ccnc3[nH]cc(F)c23)cc(F)c1[C@@]1(O)[C@H](C)CN(C)C[C@@H]1C | LATS1 Kinase-NanoLuc fusion in HEK-293 cells (Homo sapiens, UniProt O95835) | IC50 | = | 41.7 |
| OC1(c2ccc(-c3ccnc4[nH]ccc34)cc2)CCNCC1 | LATS1 Kinase-NanoLuc fusion in HEK-293 cells (Homo sapiens, UniProt O95835) | IC50 | > | 50000 |
| C[C@@H]1CNC[C@H](C)[C@@]1(O)c1ccc(-c2ccnc3[nH]cc(F)c23)cc1OC(F)(F)F | LATS1 Kinase-NanoLuc fusion in HEK-293 cells (Homo sapiens, UniProt O95835) | IC50 | = | 2130 |
| Cc1cc(-c2ccnc3[nH]cc(F)c23)cc(F)c1[C@@]1(O)[C@H](C)CN(C(C)C)C[C@@H]1C | LATS1 Kinase-NanoLuc fusion in HEK-293 cells (Homo sapiens, UniProt O95835) | IC50 | = | 62.2 |
| Fc1c[nH]c2nccc(-c3ccc(C4CCNCC4)cc3)c12 | LATS1 Kinase-NanoLuc fusion in HEK-293 cells (Homo sapiens, UniProt O95835) | IC50 | = | 25800 |
| C[C@@H]1CN(C)C[C@H](C)[C@@]1(O)c1ccc(-c2ccnc3[nH]cc(F)c23)nc1 | LATS1 Kinase-NanoLuc fusion in HEK-293 cells (Homo sapiens, UniProt O95835) | IC50 | = | 115 |
| C[C@@H]1CN(CC(N)=O)C[C@H](C)[C@@]1(O)c1c(F)cc(-c2ccnc3[nH]cc(F)c23)cc1F | LATS1 Kinase-NanoLuc fusion in HEK-293 cells (Homo sapiens, UniProt O95835) | IC50 | = | 205 |
| Cc1cc(-c2ccnc3[nH]cc(Cl)c23)ccc1CN | LATS1 Kinase-NanoLuc fusion in HEK-293 cells (Homo sapiens, UniProt O95835) | IC50 | = | 714 |
| C[C@@H]1CNC[C@H](C)[C@@]1(O)c1c(F)cc(-c2ccnc3[nH]cc(F)c23)cc1F | LATS1 Kinase-NanoLuc fusion in HEK-293 cells (Homo sapiens, UniProt O95835) | IC50 | = | 1450 |
| NCc1ccc(-c2ccnc3[nH]cc(Cl)c23)cc1 | LATS1 Kinase-NanoLuc fusion in HEK-293 cells (Homo sapiens, UniProt O95835) | IC50 | = | 2830 |
| C[C@@H]1CN(C2CCNCC2)C[C@H](C)[C@@]1(O)c1c(F)cc(-c2ccnc3[nH]cc(F)c23)cc1F | LATS1 Kinase-NanoLuc fusion in HEK-293 cells (Homo sapiens, UniProt O95835) | IC50 | = | 338 |
| C[C@@H]1CN(Cc2ccccn2)C[C@H](C)[C@@]1(O)c1c(F)cc(-c2ccnc3[nH]cc(F)c23)cc1F | LATS1 Kinase-NanoLuc fusion in HEK-293 cells (Homo sapiens, UniProt O95835) | IC50 | = | 409 |
| COC(=O)c1c[nH]c2nccc(-c3cc(C)c([C@@]4(O)[C@H](C)CN(C5CCS(=O)(=O)CC5)C[C@@H]4C)c(F)c3)c12 | LATS1 Kinase-NanoLuc fusion in HEK-293 cells (Homo sapiens, UniProt O95835) | IC50 | = | 1350 |
| COC(=O)c1c[nH]c2nccc(-c3ccc(CN)cc3)c12 | LATS1 Kinase-NanoLuc fusion in HEK-293 cells (Homo sapiens, UniProt O95835) | IC50 | = | 66800 |
